experiment: Acute toxicity; parameters: species or system mouse (albino, NMRI); settings: in vivo, po; mouse; peroral, suspension in olive oil; graphically determined
QUANTITY KIND: LD50

INSERT INTO assay_data (structure_smiles_string, measured_value) VALUES
  ('O=c1[nH]nc2n1-c1sc(Br)cc1C(c1ccccc1Cl)=NC2', '> 2000 mg/kg');
